Origin of the recorded values: PubChem BioAssay AID1851

- targetOfAssay: Cytochrome P450 2D6 (Homo sapiens)
- runDescription: Cytochrome panel assay with activity outcomes
- measurementParameters: recombinant CYP, pro-luciferin dealkylation, luminescence, p450-cyp2d6; series mostly up to 57.1 µM
About 2,600 (16%) of roughly 16,000 compounds were called active. Roughly 20% stayed inconclusive and do not appear here. Calls come from the whole dose curve; as a rule, active = well fitted curve in the direction sought with a large enough effect; inconclusive = small, poorly fitted or top-dose-only effect, or effect the other way; inactive = no such curve, though single readings can be large or run the other way. What follows is part of a selection rich in actives, with near analogues and random picks from the rest.
Could you please pick one outcome from this set? active, inactive

Consider the worked cases shown below.
molecule: C[N+]1([O-])[C@@H]2CC(OC(=O)[C@@H](CO)c3ccccc3)C[C@@H]1[C@H]1O[C@H]12 (stereo partly drawn)
qualitativeLabel: inactive
--
molecule: CN1[C@H]2CC(=O)C[C@@H]1[C@@H](O)C2
qualitativeLabel: inactive
--
molecule: CN1C(=O)CCS(=O)(=O)[C@@H]1c1ccc(Cl)cc1
qualitativeLabel: inactive
--
molecule: Cc1ccc(N=Nc2c(O)[nH]c(=O)[nH]c2=O)c([N+](=O)[O-])c1
qualitativeLabel: inactive

Query block: For this molecule, state the assay outcome: O=C(O)CCCc1ccc(N(CCCl)CCCl)cc1
Result block: inactive

Query block: For this molecule, state the assay outcome: NNC(=O)c1ccc(O)cc1
Result block: inactive

====

- targetOfAssay: Cytochrome P450 2D6 (Homo sapiens) (UniProt P10635)
- Sequence (P10635 whole entry, looked up): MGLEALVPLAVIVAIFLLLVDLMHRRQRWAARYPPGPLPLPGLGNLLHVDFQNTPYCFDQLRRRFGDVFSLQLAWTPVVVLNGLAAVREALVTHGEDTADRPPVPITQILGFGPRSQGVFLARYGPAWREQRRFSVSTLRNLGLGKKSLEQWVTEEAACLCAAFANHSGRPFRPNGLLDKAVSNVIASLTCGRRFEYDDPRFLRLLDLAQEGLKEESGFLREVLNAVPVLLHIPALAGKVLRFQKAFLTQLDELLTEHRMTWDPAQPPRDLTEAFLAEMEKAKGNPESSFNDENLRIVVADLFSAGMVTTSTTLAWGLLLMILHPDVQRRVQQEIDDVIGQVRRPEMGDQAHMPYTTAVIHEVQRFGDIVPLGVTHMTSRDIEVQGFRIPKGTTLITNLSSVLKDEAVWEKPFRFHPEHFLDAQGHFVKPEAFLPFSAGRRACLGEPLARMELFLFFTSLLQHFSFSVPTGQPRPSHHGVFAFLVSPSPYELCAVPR
- runDescription: Cytochrome panel assay with activity outcomes
- measurementParameters: recombinant CYP, pro-luciferin dealkylation, luminescence, p450-cyp2d6; series mostly up to 57.1 µM
The campaign covered roughly 16,000 compounds. About 2,600 (16%) were called active. Inconclusive results (about 20%) are left out. Calls come from the whole dose curve; as a rule, active = well fitted curve in the direction sought with a large enough effect; inconclusive = small, poorly fitted or top-dose-only effect, or effect the other way; inactive = no such curve, though single readings can be large or run the other way. The full list was thinned out, with actives kept by preference.
Could you please pick one outcome from this set? 1 for active, 0 for inactive

Consider the worked cases shown below.
querySmiles: C[C@H](CC(C#N)(c1ccccc1)c1ccccc1)N1CCCCC1
qualitativeLabel: 1

querySmiles: NCCCNCCSP(=O)(O)O
qualitativeLabel: 0

querySmiles: c1cnc(N2CC[C@@]3(CCCNC3)C2)nc1
qualitativeLabel: 1

# next compound below
Query block: For this compound, state the assay outcome: N[C@H](Cc1o[nH]c(=O)c1Cl)C(=O)O
Result block: 1

====

- targetOfAssay: Cytochrome P450 2D6 (Homo sapiens)
- runDescription: Cytochrome panel assay with activity outcomes
- measurementParameters: recombinant CYP, pro-luciferin dealkylation, luminescence, p450-cyp2d6; series mostly up to 57.1 µM
Hit rate of the full screen: of about 16,000 compounds, about 2,600 (16%) were called active. Roughly 20% stayed inconclusive and do not appear here. The call rests on the fitted dose curve; in most records, active means well fitted curve in the direction sought with a large enough effect; inconclusive means small, poorly fitted or top-dose-only effect, or effect the other way; inactive means no such curve, though single readings can be large or run the other way. Only a selection was taken, and actives are over-represented in it overall.
Could you please pick one outcome from this set? Yes = active, No = inactive

Consider the worked cases shown below.
molecule: O=C(O)Cc1cccnc1C(=O)O
qualitativeLabel: No
--
molecule: CN(CCc1ccc(Cl)c(Cl)c1)[C@H]1CCCC[C@H]1N1CCCC1
qualitativeLabel: Yes
--
molecule: COCCCNC(=S)NC1CC2CCCC(C1)N2Cc1cccs1 (stereo not given)
qualitativeLabel: Yes
--
molecule: O[C@@H](c1cc(-c2ccccc2)nc2c1ccc1ccccc12)[C@@H]1CCCCN1
qualitativeLabel: Yes

# next molecule below
Query block: For this molecule, state the assay outcome: CC(C)n1cnc2c(C(=O)N[C@H]3CN4CCC3CC4)cc(Cl)cc21
Result block: No

====

- targetOfAssay: Cytochrome P450 2D6 (Homo sapiens) (UniProt P10635)
- runDescription: Cytochrome panel assay with activity outcomes
- measurementParameters: recombinant CYP, pro-luciferin dealkylation, luminescence, p450-cyp2d6; series mostly up to 57.1 µM
Among all 16,000 compounds or so, about 2,600 (16%) were called active. Roughly 20% stayed inconclusive and do not appear here. This excerpt belongs to a sample that is enriched for actives.
endpointLabel: outcome

compound: Oc1ccc2c3c1O[C@@H]1c4[nH]c5c(c4C[C@@]4(O)[C@@H](C2)N(CC2CC2)CC[C@]314)C[C@]1(O)[C@@H]2Cc3ccc(O)c4c3[C@@]1(CCN2CC1CC1)[C@H]5O4
experimentalValue: inactive
--
compound: Oc1ccc2[nH]cc(CCCCN3CC=C(c4ccccc4)CC3)c2c1
experimentalValue: inactive
--
compound: COc1ccc(C2SCC(=O)Nc3c2c(C)nn3-c2ccccc2)cc1OC (stereo not drawn)
experimentalValue: inactive

====

- targetOfAssay: Cytochrome P450 2D6 (Homo sapiens) (UniProt P10635)
- runDescription: Cytochrome panel assay with activity outcomes
- measurementParameters: recombinant CYP, pro-luciferin dealkylation, luminescence, p450-cyp2d6; series mostly up to 57.1 µM
- Description: The P450 gene superfamily is involved in the metabolism and clearance of xenobiotics. This assay used various human CYP P450 isozymes to measure the dealkylation of various pro-luciferin substrates to luciferin. The luciferin is then measured by luminescence after the addition of a luciferase detection reagent. […] Inhibitors and some substrates limit the production of luciferin, and decrease measured luminescence. […] 8, Detection, 1 sec, ViewLux luminescent read […]
In all, about 16,000 compounds went through this assay and about 2,600 (16%) were called active. Inconclusive results (about 20%) are left out. Calls come from the whole dose curve; as a rule, active = well fitted curve in the direction sought with a large enough effect; inconclusive = small, poorly fitted or top-dose-only effect, or effect the other way; inactive = no such curve, though single readings can be large or run the other way. This is one part of a sample in which actives are shown more often than they occur.
Could you please pick one outcome from this set? active, inactive

Consider the worked cases shown below.
compound: CCOC(=O)c1cncn1[C@H](C)c1ccccc1
qualitativeLabel: inactive

compound: c1ccc(N2CCC3(CCNCC3)CC2)nc1
qualitativeLabel: active

compound: C=CCO[C@@H](Cn1ccnc1)c1ccc(Cl)cc1Cl
qualitativeLabel: active

# next compound below
Query block: For this compound, state the assay outcome: CC(C)[C@@H]1CN[C@H](C(=O)O)[C@@H]1CC(=O)O
Result block: inactive

====

- targetOfAssay: Cytochrome P450 2D6 (Homo sapiens) (UniProt P10635)
- runDescription: Cytochrome panel assay with activity outcomes
- measurementParameters: recombinant CYP, pro-luciferin dealkylation, luminescence, p450-cyp2d6; series mostly up to 57.1 µM
Hit rate of the full screen: of about 16,000 compounds, about 2,600 (16%) were called active. About 20% were inconclusive and are not listed. For the sample, actives were picked, then their nearest neighbours and some compounds at random.
endpointLabel: AC50

Observe how each entry below is paired with its result.
compound: Clc1cnc(Oc2ccc(Oc3ncc(Cl)cc3Cl)cc2)c(Cl)c1
AC50: inactive
--
compound: CC(=O)OCC1=C(C(=O)[O-])N2C(=O)[C@@H](NC(=O)CCC[C@@H](N)C(=O)[O-])[C@@H]2SC1.[Zn+2]
AC50: inactive
--
compound: CNC[C@H](O)c1ccc(O)cc1
AC50: inactive
--
compound: C=CCN1C[C@H](C)N([C@H](c2ccc(C(=O)N(CC)CC)cc2)c2cccc(O)c2)C[C@H]1C
AC50: inactive

Consider the additional compound presented here.
Query block: Quick one: AC50 for CN1C[C@@H](CS(=O)(=O)N(C)C)C[C@H]2c3cccc4c3c(cn4C)C[C@@H]21 ?
Result block: 3980 nM (active)

====

- targetOfAssay: Cytochrome P450 2D6 (Homo sapiens)
- runDescription: Cytochrome panel assay with activity outcomes
- measurementParameters: recombinant CYP, pro-luciferin dealkylation, luminescence, p450-cyp2d6; series mostly up to 57.1 µM
The whole screen tested about 16,000 compounds, of which about 2,600 (16%) were called active. Roughly 20% stayed inconclusive and do not appear here. Calls come from the whole dose curve; as a rule, active = well fitted curve in the direction sought with a large enough effect; inconclusive = small, poorly fitted or top-dose-only effect, or effect the other way; inactive = no such curve, though single readings can be large or run the other way. For the sample, actives were picked, then their nearest neighbours and some compounds at random.
Could you please pick one outcome from this set? active, inactive

Consider the worked cases shown below.
compound: CCOP(=O)(OCC)C(NC(C)=O)C(Cl)(Cl)Cl (configuration not stated)
qualitativeLabel: inactive
--
compound: C[N+]1([O-])[C@@H]2CC[C@H]1CC(OC(=O)[C@@H](CO)c1ccccc1)C2 (some centres not stated)
qualitativeLabel: inactive
--
compound: CC(C)[C@@]1(NC(=O)[C@@H]2C[C@H]3c4cccc5[nH]cc(c45)C[C@@H]3N(C)C2)O[C@]2(O)[C@H]3CCCN3C(=O)[C@H](Cc3ccccc3)N2C1=O
qualitativeLabel: inactive
--
compound: CCOC(=O)Cn1cc(C(=O)c2ccccc2F)c2ccccc21
qualitativeLabel: inactive
--
compound: CC(=NCCN1CCOCC1)c1c(O)n(Cc2ccccc2)c(=O)[nH]c1=O
qualitativeLabel: inactive

Query block: For this compound, state the assay outcome: O=C(CCCC1=NS(=O)(=O)c2ccccc2N1)N1CCC2(CC1)OCCO2
Result block: inactive

Query block: For this compound, state the assay outcome: C=C1C(O)(c2ccccc2)C2CC[N+]1(C)CC2 (configuration not stated)
Result block: inactive

Query block: For this compound, state the assay outcome: Cc1cc2c(C(F)(F)F)cc(=O)oc2c2c1NCCC2
Result block: inactive

Query block: For this compound, state the assay outcome: C[C@H](c1ccccc1)N1CCN([C@@H](C)c2ccccc2)CC1
Result block: active

Query block: For this compound, state the assay outcome: O=P(Nc1c(Cl)cccc1Cl)(c1ccccc1)c1nc2c(s1)CCCC2 (configuration not stated)
Result block: inactive

====

- targetOfAssay: Cytochrome P450 2D6 (Homo sapiens) (UniProt P10635)
- runDescription: Cytochrome panel assay with activity outcomes
- measurementParameters: recombinant CYP, pro-luciferin dealkylation, luminescence, p450-cyp2d6; series mostly up to 57.1 µM
Out of some 16,000 compounds screened, about 2,600 (16%) were called active. Another 20% or so got no clear call; they are omitted. The call rests on the fitted dose curve; in most records, active means well fitted curve in the direction sought with a large enough effect; inconclusive means small, poorly fitted or top-dose-only effect, or effect the other way; inactive means no such curve, though single readings can be large or run the other way. For the sample, actives were picked, then their nearest neighbours and some compounds at random.
Could you please pick one outcome from this set? active, inactive

Consider the worked cases shown below.
molecule: CN1C2CCC1CC(OC(=O)c1ccc(Cl)cc1)C2 (configuration not stated)
qualitativeLabel: active
--
molecule: CC(O)(CS(=O)(=O)c1cccc(C(F)(F)F)c1)C(=O)Nc1cccc(C(F)(F)F)c1 (configuration not stated)
qualitativeLabel: inactive
--
molecule: COc1cc(C=C(C#N)C#N)cc(O)c1O
qualitativeLabel: inactive
--
molecule: O=C(Nc1ccc(Cl)cc1C(=O)c1ccccc1Cl)c1ccco1
qualitativeLabel: inactive
--
molecule: CCc1ccc(CCN2CCCCC2)nc1
qualitativeLabel: active
--
molecule: COC(=O)C1(C)C=C2C(=C(C)C(=O)C2C)CN1 (configuration not stated)
qualitativeLabel: inactive
--
molecule: CC1(C)CCC2=C(O1)c1ccccc1C(=O)C2=O
qualitativeLabel: active
--
molecule: COc1ccc(C(=O)OC2C[C@H]3CC[C@@H](C2)N3C)cc1OC (some centres not stated)
qualitativeLabel: active
--
molecule: COC(=O)N1CCC2(CCCN(C)C2)CC1
qualitativeLabel: inactive
--
molecule: COc1cccc(-c2nc(CS(=O)CC(=O)N3CCC4(CC3)OCCO4)c(C)o2)c1 (configuration not stated)
qualitativeLabel: inactive

Query block: For this molecule, state the assay outcome: CN1CCc2nc3sc(C(=O)NC(C)(C)C)c(N)c3cc2C1
Result block: inactive

Query block: For this molecule, state the assay outcome: C[C@]1(C(=O)O)[C@@H]2CC[C@@H](O2)[C@@]1(C)C(=O)O
Result block: inactive
